Target: T1, CRBN, Q96SW2;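 further: pooled lentiviral library of zinc finger degron-EGFP fusions in mCherry-positive Jurkat cells, FACS-sorted after compound exposure, with degron abundance counted by next-generation sequencing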
T1 chain: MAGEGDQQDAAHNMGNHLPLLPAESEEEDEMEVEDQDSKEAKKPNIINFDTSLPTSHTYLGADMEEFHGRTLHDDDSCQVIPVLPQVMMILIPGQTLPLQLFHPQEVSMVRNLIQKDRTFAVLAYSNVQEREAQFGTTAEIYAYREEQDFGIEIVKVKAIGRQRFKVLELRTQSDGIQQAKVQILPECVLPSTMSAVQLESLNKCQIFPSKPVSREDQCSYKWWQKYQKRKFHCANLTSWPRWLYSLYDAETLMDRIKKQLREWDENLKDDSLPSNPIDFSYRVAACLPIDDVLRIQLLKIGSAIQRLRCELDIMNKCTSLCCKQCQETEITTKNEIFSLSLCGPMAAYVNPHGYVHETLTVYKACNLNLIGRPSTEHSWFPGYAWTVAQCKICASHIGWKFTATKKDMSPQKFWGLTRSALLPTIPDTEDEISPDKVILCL
Assay: log2 fold change of degron read counts, EGFP-low vs EGFP+ sorted cells (limma voom), compound-induced degradation; higher = more compound-induced degradation of the degron-EGFP fusion; degrons are variants of IKZF1/3 zinc finger 2; compound dose not given here
Settings: Jurkat; 18 h; compound: compound 33 (diphenyl IMiD analogue)
In all, about 8,300 sequences were measured (“log2 fold change of degron read counts, EGFP-low vs EGFP+ sorted cells (limma voom), compound-induced degradation”: median about -1.1, highest 2% from about 3.2 on). The full list was thinned out, with the highest values kept by preference.
Quantity measured: log2 fold change of degron read counts

>>> print(df.to_string())
                              sequence_code                       quantity_measured  reported_value
0  FFCDICGAPFTQKGNLLRHIKL [46F_47F_49D_50I_52G_53A_54P_55F_67L_, Q9UKT9]  log2 fold change of degron read counts            1.06
1  FVCDICGAPFTQKGNLLRHIKL [46F_47V_49D_50I_52G_53A_54P_55F_67L_, Q9UKT9]  log2 fold change of degron read counts            1.93
2  FFCDICGADFTQKGNLLRHIKL [46F_47F_49D_50I_52G_53A_54D_55F_67L_, Q9UKT9]  log2 fold change of degron read counts           -2.01
3  FYCDICGAPFTQKGNLLRHIKL [46F_47Y_49D_50I_52G_53A_54P_55F_67L_, Q9UKT9]  log2 fold change of degron read counts            2.02
